# Test system: HIV-1IIIB strain
# METHOD_DESCRIPTION: In vitro combined test: survival of HIV-1IIIB-infected MT4 cells (MTT), isobologram and combination index
# Type: cell-based
# APPLIED_CONDITIONS: Human immunodeficiency virus 1, MT4, with Preparation example 117 10.5 ng/ml; read-out: IC50 of DDI
OBSERVATION_TYPE: IC50 (nM)
Quick note: give the figure in nM, leave out the unit.

Data request: Entry OC[C@@H]1CC[C@H](n2cnc3c(O)ncnc32)O1 [DDI, 2',3'-dideoxyinosine, reference compound] : reported IC50 = ?
Data returned: 313

----------
# Tested on: HIV-1IIIB strain
# METHOD_DESCRIPTION: In vitro combined test: survival of HIV-1IIIB-infected MT4 cells (MTT), isobologram and combination index
# Assay type: cell-based
# APPLIED_CONDITIONS: Human immunodeficiency virus 1, MT4, with Preparation example 117 10.0 ng/ml; read-out: IC50 of DDI
OBSERVATION_TYPE: IC50

Data request: For the record OC[C@@H]1CC[C@H](n2cnc3c(O)ncnc32)O1 [DDI, 2',3'-dideoxyinosine, reference compound] , what value of IC50 is listed for HIV-1IIIB strain?
Data returned: 0.63 µM

----------
# System: HIV-1IIIB strain
# METHOD_DESCRIPTION: In vitro combined test: survival of HIV-1IIIB-infected MT4 cells (MTT), isobologram and combination index
# Format: cell-based
# APPLIED_CONDITIONS: Human immunodeficiency virus 1, MT4, with Preparation example 117 0.39 ng/ml; read-out: IC50 of DDI
OBSERVATION_TYPE: IC50 (µM)
Quick note: give the figure in µM, leave out the unit.

Data request: Entry OC[C@@H]1CC[C@H](n2cnc3c(O)ncnc32)O1 [DDI, 2',3'-dideoxyinosine, reference compound] : reported IC50 = ?
Data returned: 4.27
